Protein target, amino acids: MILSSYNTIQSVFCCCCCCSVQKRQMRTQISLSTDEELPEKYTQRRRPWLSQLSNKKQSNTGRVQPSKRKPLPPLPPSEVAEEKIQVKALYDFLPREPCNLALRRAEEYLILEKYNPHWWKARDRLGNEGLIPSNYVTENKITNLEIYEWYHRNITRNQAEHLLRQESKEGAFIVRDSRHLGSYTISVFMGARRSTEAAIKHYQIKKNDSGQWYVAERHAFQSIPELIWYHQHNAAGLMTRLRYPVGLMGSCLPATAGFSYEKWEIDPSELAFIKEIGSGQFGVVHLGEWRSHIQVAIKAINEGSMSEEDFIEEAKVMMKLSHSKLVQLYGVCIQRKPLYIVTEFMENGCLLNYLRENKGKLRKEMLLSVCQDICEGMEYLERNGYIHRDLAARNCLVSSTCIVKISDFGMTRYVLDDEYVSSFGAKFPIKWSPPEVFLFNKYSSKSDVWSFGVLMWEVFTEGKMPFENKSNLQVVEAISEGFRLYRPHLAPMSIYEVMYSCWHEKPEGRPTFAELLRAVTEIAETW
MEASURED_ENDPOINT: pIC50
# reply with the number alone; pIC50 is -log10 of concentration in mol/L

Record request: pIC50 value, item CC#CC(=O)N1CCC[C@H]1c1nc(-c2ccc(C(=O)Nc3ccccn3)cc2)c2c(N)nccn12 6.54
